Target: T1, human Sdc2 (human, UniProt P34741 19-144, limits assumed)
T1 construct: Antigen of the Octet tandem binning, loaded on biosensors at 100 nM; also called huSdc2; hSdc2
T1 sequence (P34741 19-144 limits assumed): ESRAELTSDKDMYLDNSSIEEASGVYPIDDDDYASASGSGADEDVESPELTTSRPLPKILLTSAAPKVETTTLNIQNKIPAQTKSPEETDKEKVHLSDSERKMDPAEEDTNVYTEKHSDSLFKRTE
Assay: Octet tandem binning; saturating Ab f10 19838-10-I12-A
Overview of recorded raw competing-Ab binding signal for various binders
Could you keep your reply to the number by itself?

[
  {
    "binder": "R4M-P1-A10 (antibody, human IgG1, kappa, V domains shown) VH: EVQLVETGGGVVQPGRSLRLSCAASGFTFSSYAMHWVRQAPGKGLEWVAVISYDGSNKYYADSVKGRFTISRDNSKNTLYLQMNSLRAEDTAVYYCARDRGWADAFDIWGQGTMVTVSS VL: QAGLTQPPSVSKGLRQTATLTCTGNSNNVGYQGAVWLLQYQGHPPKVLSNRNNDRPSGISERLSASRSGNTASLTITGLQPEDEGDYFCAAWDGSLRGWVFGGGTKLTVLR",
    "raw competing-Ab binding signal": 0.418
  },
  {
    "binder": "8-G17-A (antibody, V domains shown, PentaMice hybridoma clone, made recombinantly in CHO cells) VH: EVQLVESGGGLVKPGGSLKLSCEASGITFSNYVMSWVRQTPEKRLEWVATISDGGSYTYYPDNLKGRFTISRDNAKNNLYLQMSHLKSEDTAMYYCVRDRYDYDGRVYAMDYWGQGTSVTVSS VL: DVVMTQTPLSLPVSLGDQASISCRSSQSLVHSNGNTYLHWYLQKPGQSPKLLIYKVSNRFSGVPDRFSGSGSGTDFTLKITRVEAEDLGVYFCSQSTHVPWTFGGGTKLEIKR",
    "raw competing-Ab binding signal": 0.113
  },
  {
    "binder": "R3-P3-E09 (antibody, human IgG1, kappa, V domains shown, human IgG1 kappa from the phage campaign) VH: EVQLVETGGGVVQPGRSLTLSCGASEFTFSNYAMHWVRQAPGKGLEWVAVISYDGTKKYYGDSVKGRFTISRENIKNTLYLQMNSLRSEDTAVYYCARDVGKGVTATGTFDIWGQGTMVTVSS VL: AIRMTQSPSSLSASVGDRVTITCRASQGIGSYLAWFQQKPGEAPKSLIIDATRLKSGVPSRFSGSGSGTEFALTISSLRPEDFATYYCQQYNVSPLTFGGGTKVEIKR",
    "raw competing-Ab binding signal": 0.151
  },
  {
    "binder": "R3-P3-C11 (antibody, human IgG1, kappa, V domains shown, human IgG1 kappa from the phage campaign) VH: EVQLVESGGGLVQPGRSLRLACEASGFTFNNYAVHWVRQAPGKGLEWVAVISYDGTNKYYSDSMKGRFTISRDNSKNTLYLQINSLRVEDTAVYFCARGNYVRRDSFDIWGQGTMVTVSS VL: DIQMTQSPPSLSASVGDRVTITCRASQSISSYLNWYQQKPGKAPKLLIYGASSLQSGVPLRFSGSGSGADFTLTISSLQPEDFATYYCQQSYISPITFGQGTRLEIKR",
    "raw competing-Ab binding signal": 0.351
  },
  {
    "binder": "19838-6-N03-A (antibody, IgG1, V domains shown) VH: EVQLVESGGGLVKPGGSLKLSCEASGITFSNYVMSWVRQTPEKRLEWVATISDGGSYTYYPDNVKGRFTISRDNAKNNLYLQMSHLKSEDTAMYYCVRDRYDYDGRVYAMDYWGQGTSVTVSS VL: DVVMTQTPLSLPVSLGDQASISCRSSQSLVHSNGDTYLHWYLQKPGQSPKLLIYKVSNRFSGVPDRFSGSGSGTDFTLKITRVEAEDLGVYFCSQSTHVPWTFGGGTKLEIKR",
    "raw competing-Ab binding signal": 0.0734
  }
]

Enquiry: For R4M-P3-A12 (antibody, human IgG1, kappa, V domains shown) VH: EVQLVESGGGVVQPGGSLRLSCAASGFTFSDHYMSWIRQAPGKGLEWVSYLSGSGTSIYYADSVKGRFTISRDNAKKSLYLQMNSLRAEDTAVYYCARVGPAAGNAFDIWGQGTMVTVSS VL: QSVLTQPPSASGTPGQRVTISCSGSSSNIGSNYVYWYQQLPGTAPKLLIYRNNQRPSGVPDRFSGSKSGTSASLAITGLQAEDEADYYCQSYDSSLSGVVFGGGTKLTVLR , what is its reported raw competing-Ab binding signal?
Return: 0.152

The measurements presented in this section are drawn from patent US20250282885A1.
